- Tested on: Mus musculus
- experimental-protocol: Antinociceptive activity against intrathecally dosed ICR-CD1 mouse by radiant heat tail flick test
- Format: functional
Each record here notes measured log10(ED50).
quantity-kind: log10(ED50) (log10 of the value in pmol)

Cc1c(C(=O)NC2CCN(C(=O)COCC(=O)NCCNC(=O)COCC(=O)N[C@H]3CC[C@@]4(O)[C@H]5Cc6ccc(O)c7c6[C@@]4(CCN5C)[C@H]3O7)CC2)nn(-c2ccc(Cl)cc2Cl)c1-c1ccc(Cl)cc1
1.62
Cc1c(C(=O)NC2CCN(C(=O)COCC(=O)NCCCCCCNC(=O)COCC(=O)N[C@H]3CC[C@@]4(O)[C@H]5Cc6ccc(O)c7c6[C@@]4(CCN5C)[C@H]3O7)CC2)nn(-c2ccc(Cl)cc2Cl)c1-c1ccc(Cl)cc1
1.28
CNC(=O)COCC(=O)NCCCCCNC(=O)COCC(=O)N[C@H]1CC[C@@]2(O)[C@H]3Cc4ccc(O)c5c4[C@@]2(CCN3C)[C@H]1O5
2.03
Cc1c(C(=O)NC2CCN(C(=O)COCC(=O)N[C@H]3CC[C@@]4(O)[C@H]5Cc6ccc(O)c7c6[C@@]4(CCN5C)[C@H]3O7)CC2)nn(-c2ccc(Cl)cc2Cl)c1-c1ccc(Cl)cc1
1.43
Cc1c(C(=O)NC2CCN(C(=O)COCC(=O)NCCCCCCCNC(=O)COCC(=O)N[C@H]3CC[C@@]4(O)[C@H]5Cc6ccc(O)c7c6[C@@]4(CCN5C)[C@H]3O7)CC2)nn(-c2ccc(Cl)cc2Cl)c1-c1ccc(Cl)cc1
0.70
Cc1c(C(=O)NC2CCN(C(=O)N[C@H]3CC[C@@]4(O)[C@H]5Cc6ccc(O)c7c6[C@@]4(CCN5C)[C@H]3O7)CC2)nn(-c2ccc(Cl)cc2Cl)c1-c1ccc(Cl)cc1
2.75

###

- Test system: Mus musculus
- experimental-protocol: Reduction in tolerance acquisition in ICR-CD1 mouse assessed as compound antinociception effect at 125 to 2500 pmol, icv administered on day 1 and repeated on day 2 measured on day 2 by radiant heat tail flick test
- Assay type: functional
- Parameters: scale not given: the % may be the effect or the level left
Each record here notes measured Activity.
quantity-kind: Activity (%)

Cc1c(C(=O)NC2CCN(C(=O)COCC(=O)N[C@H]3CC[C@@]4(O)[C@H]5Cc6ccc(O)c7c6[C@@]4(CCN5C)[C@H]3O7)CC2)nn(-c2ccc(Cl)cc2Cl)c1-c1ccc(Cl)cc1
63.7
CNC(=O)COCC(=O)NCCCCCNC(=O)COCC(=O)N[C@H]1CC[C@@]2(O)[C@H]3Cc4ccc(O)c5c4[C@@]2(CCN3C)[C@H]1O5
24.14
Cc1c(C(=O)NC2CCN(C(=O)N[C@H]3CC[C@@]4(O)[C@H]5Cc6ccc(O)c7c6[C@@]4(CCN5C)[C@H]3O7)CC2)nn(-c2ccc(Cl)cc2Cl)c1-c1ccc(Cl)cc1
33.85
Cc1c(C(=O)NC2CCN(C(=O)COCC(=O)NCCCCCCNC(=O)COCC(=O)N[C@H]3CC[C@@]4(O)[C@H]5Cc6ccc(O)c7c6[C@@]4(CCN5C)[C@H]3O7)CC2)nn(-c2ccc(Cl)cc2Cl)c1-c1ccc(Cl)cc1
86.33
Cc1c(C(=O)NC2CCN(C(=O)COCC(=O)NCCNC(=O)COCC(=O)N[C@H]3CC[C@@]4(O)[C@H]5Cc6ccc(O)c7c6[C@@]4(CCN5C)[C@H]3O7)CC2)nn(-c2ccc(Cl)cc2Cl)c1-c1ccc(Cl)cc1
66.99
